molecular target: integrin receptors expressed on surface of U87MG glioblastoma cells (Homo sapiens, UniProt P05106+P06756); test: U87MG competition binding assay
Bridges are numbered along the chain shown (N, C = ends). Where no end group is shown, it is not given here.

- chain-sequence: "ECESGPCCRNCKFLKEGTICKRARGDDMDDYCNGKTCDCPRNPHKGPAT (disulfide 2-11, 7-32, 8-37, 20-39 (inferred)) [echistatin]"
  IC50, nM: 3.3
